test system: Leishmania donovani; test: Inhibition percentage of Leishmanial tubulin assembly at a concentration of 10 uM.
Experimental Endpoint: inhibition

Solved entries:
{"columns": ["Smiles", "Target Desc", "inhibition"],
 "data": [
  ["CCCN(CCC)c1c([N+](=O)[O-])cc(S(=O)(=O)Nc2ccc(Cl)c(Cl)c2)cc1[N+](=O)[O-]", "Leishmania donovani", "< 20%"],
  ["CCCN(CCC)c1c([N+](=O)[O-])cc(S(=O)(=O)Nc2ccc(Cl)cc2)cc1[N+](=O)[O-]", "Leishmania donovani", "< 20%"],
  ["CCN(CC)c1c([N+](=O)[O-])cc(S(=O)(=O)Nc2ccccc2)cc1[N+](=O)[O-]", "Leishmania donovani", "< 20%"],
  ["CCCN(CCC)c1c([N+](=O)[O-])cc(S(=O)(=O)Nc2ccc(OC)cc2)cc1[N+](=O)[O-]", "Leishmania donovani", "< 20%"],
  ["CCCN(CCC)c1c([N+](=O)[O-])cc(S(=O)(=O)Nc2ccc(C)cc2)cc1[N+](=O)[O-]", "Leishmania donovani", "< 20%"]
]}

Print Leishmania donovani inhibition for `CCCN(CCC)c1c([N+](=O)[O-])cc(S(=O)(=O)Nc2cccc(OC)c2)cc1[N+](=O)[O-]` . 39%

----------
system: Leishmania donovani; assay: Inhibition percentage of Leishmanial tubulin assembly at a concentration of 10 uM.
Each record here notes measured inhibition.
Please reply with the bare figure in % and do not write the unit itself.

Solved entries:
{"columns": ["Smiles", "Target Desc", "inhibition [%]"],
 "data": [
  ["CCCN(CCC)c1c([N+](=O)[O-])cc(S(=O)(=O)Nc2cc(Cl)cc(Cl)c2)cc1[N+](=O)[O-]", "Leishmania donovani", 102],
  ["CCCN(CCC)c1c([N+](=O)[O-])cc(S(=O)(=O)Nc2cccc(Cl)c2)cc1[N+](=O)[O-]", "Leishmania donovani", 57]
]}

Shifting focus to the compound that follows.
Look up inhibition of `CCCCN(CCCC)c1c([N+](=O)[O-])cc(S(=O)(=O)Nc2ccccc2)cc1[N+](=O)[O-]` and report it. 104
